Assayed Target: PI3Kβ (Homo sapiens (Human), UniProt P42338)
Sequence (P42338 whole entry, canonical isoform): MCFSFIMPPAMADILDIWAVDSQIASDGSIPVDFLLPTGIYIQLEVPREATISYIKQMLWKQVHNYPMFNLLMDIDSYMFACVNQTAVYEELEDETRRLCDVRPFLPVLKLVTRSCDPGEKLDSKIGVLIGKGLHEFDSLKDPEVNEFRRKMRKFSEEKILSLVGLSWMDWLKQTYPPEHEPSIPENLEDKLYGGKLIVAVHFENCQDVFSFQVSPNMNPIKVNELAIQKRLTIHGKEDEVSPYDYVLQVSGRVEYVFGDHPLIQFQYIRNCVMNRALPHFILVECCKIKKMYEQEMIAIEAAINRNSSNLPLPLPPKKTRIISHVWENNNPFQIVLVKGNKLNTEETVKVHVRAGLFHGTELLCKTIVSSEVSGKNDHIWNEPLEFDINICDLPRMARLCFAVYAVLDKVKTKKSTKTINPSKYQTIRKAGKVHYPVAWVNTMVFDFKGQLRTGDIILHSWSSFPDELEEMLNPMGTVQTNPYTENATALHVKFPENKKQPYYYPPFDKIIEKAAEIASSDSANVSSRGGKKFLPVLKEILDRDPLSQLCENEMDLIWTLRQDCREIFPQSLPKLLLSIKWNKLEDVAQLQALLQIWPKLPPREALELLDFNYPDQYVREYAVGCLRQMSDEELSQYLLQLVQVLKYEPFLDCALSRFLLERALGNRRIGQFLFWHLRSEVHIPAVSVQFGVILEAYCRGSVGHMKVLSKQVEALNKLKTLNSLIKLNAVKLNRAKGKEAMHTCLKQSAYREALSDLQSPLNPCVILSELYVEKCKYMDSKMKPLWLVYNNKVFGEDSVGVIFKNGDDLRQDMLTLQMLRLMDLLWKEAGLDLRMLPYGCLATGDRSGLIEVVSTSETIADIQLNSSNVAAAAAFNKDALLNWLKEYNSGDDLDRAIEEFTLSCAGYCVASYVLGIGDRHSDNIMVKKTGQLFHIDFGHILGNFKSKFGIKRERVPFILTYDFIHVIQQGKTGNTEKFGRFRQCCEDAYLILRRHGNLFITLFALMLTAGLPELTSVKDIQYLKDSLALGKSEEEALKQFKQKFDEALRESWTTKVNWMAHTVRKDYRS
Sequence (P27986 whole entry partner, canonical isoform): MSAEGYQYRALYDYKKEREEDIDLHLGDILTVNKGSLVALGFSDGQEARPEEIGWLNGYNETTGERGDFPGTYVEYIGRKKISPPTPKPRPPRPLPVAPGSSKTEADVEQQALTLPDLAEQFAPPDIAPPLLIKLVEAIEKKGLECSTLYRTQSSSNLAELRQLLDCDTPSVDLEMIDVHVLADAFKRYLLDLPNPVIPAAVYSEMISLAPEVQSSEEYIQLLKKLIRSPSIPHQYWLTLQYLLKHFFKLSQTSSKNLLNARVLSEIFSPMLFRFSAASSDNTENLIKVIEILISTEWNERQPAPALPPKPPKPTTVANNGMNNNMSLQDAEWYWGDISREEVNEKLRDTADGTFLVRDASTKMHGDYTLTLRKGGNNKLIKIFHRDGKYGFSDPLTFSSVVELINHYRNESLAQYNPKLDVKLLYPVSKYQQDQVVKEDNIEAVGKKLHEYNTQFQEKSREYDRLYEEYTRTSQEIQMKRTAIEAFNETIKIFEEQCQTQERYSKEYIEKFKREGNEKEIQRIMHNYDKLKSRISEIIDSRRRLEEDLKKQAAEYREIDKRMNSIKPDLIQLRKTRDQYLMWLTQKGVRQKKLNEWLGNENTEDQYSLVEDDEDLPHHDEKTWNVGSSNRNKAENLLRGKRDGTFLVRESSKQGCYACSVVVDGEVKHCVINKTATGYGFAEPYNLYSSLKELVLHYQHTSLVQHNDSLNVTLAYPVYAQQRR
Test: PI3K isoform TR-FRET enzymatic assay (PI3Kβ)
Particulars: 2× Km ATP, 30 minutes at 25° C.
Method: The compounds of formula (I) were characterized for their enzymatic activity against the PI3K isoforms. The activities were measured using a time-resolved fluorescence resonance energy transfer (TR-FRET) assay. TR-FRET monitored the formation of 3,4,5-inositol triphosphate molecule that competed with fluorescently labeled PIP3 for binding to the GRP-1 pleckstrin homology domain protein. Class I PI3K isoforms were expressed and purified as heterodimeric recombinant proteins. […]
Record form. Attribute: IC50. Fill in for each entry.
Phrase the answer as number then unit, nothing more needed.

Can you look up IC50 on PI3Kβ (Homo sapiens (Human), UniProt P42338) for CCCc1nc2c(-c3cnc(Cl)[nH]3)cc(N3CCOCC3)cc2n1-c1ccnc2c(F)ccc(F)c12 ?
17 nM

Provide value of IC50 for this record tested with PI3Kβ (Homo sapiens (Human), UniProt P42338): Cc1nc2c(Cl)cccc2c(-n2c(C)nc3c(-c4nnc[nH]4)cc(N4CCOCC4)cc32)c1C
36 nM

Write down the reported IC50 of Cc1nc2c(-c3nnc[nH]3)cc(N3CCOCC3)cc2n1-c1ccnc2cc(F)ccc12 , test system: PI3Kβ (Homo sapiens (Human), UniProt P42338).
11 nM

# returns recorded IC50 (system: PI3Kβ (Homo sapiens (Human), UniProt P42338)) for Clc1cccc2c(-n3c(C4CNC4)nc4c(-c5nnc[nH]5)cc(N5CCOCC5)cc43)ccnc12
380 nM

---

Assayed Target: PI3Kβ (Homo sapiens (Human), UniProt P42338)
Test: PI3K isoform TR-FRET enzymatic assay (PI3Kβ)
Particulars: 2× Km ATP, 30 minutes at 25° C.
# binning rule on IC50: band 1 (below 20 nM), band 2 (20 nM to below 100 nM), band 3 (100 nM or more)

In plain terms, what class is Cc1nc2c(-c3cc[nH]c3)cc(N3CCOCC3)cc2n1-c1ccnc2c(Cl)cccc12 [Example 263] ?
band 1

Each compound maps to one class by IC50. Which class for Cc1cc(-n2cnc3c(-c4cnc[nH]4)cc(N4CCOCC4)cc32)c2c(Cl)ccc(Cl)c2n1 [Example 330] ?
band 1

Exercise: read the entry Cc1nc2c(-c3nnc[nH]3)cc(N3CCOCC3)cc2n1-c1c(C2CC2)cnc2ccccc12 [Example 66] and state which class it falls under.
band 1

Pick a category. Item: CCc1nc2c(-c3ncc[nH]3)cc(N3CCOCC3)cc2n1-c1ccnc2c(F)ccc(F)c12 (atropisomer, axis not shown) [Compound 371]
band 3

# bin label for CCc1nc2c(-c3ncco3)cc(N3CCOCC3)cc2n1-c1ccnc2c(Cl)c(F)ccc12 [Example 218]
band 1

For the record CCc1nc2c(-c3nc(C)cs3)cc(N3CCOCC3)cc2n1-c1ccnc2c(F)cccc12 [Example 232] , report the class its IC50 corresponds to.
band 2

Any idea which band Cc1cc(-n2c(C)nc3c(-c4cnc[nH]4)cc(N4CCOCC4)cc32)c2cccc(F)c2n1 [Example 210] is in?
band 2

Categorize the following entry: c1ccc2c(-n3c(C4COC4)nc4c(-c5nnc[nH]5)cc(N5CCOCC5)cc43)ccnc2c1 [Example 24]
band 3

For the record Fc1cccc2c(-n3c(C4CC4)nc4c(-c5ncco5)cc(N5CCOCC5)cc43)ccnc12 [Example 214] , report the class its IC50 corresponds to.
band 2

Which bin should I file Cc1nc2c(-c3nnc(Cl)[nH]3)cc(N3CCOCC3)cc2n1-c1ccnc2c(Cl)ccc(F)c12 [Example 170] under?
band 1

Could you tell me which band Clc1ncc(-c2cc(N3CCOCC3)cc3c2nc(C2COC2)n3-c2ccnc3c(Cl)cccc23)[nH]1 [Example 291] belongs to?
band 2

Would you mind sorting CC(C)Cc1nc2c(-c3nnc[nH]3)cc(N3CCOCC3)cc2n1-c1ccnc2c(Cl)cccc12 [Example 50] into the appropriate category?
band 1

State the band of Cc1nc2c(-c3ccncc3)cc(N3CCOCC3)cc2n1-c1ccnc2c(Cl)cccc12 [Example 319]
band 3
